// provenance: patent US12247004B2

As shown below, each of these compounds has a reported IC50 value.
- system.under.test: Leucyl-tRNA synthetase (LeuRS) (Escherichia coli (strain K12), UniProt P07813)
- Sequence (P07813 whole entry, looked up): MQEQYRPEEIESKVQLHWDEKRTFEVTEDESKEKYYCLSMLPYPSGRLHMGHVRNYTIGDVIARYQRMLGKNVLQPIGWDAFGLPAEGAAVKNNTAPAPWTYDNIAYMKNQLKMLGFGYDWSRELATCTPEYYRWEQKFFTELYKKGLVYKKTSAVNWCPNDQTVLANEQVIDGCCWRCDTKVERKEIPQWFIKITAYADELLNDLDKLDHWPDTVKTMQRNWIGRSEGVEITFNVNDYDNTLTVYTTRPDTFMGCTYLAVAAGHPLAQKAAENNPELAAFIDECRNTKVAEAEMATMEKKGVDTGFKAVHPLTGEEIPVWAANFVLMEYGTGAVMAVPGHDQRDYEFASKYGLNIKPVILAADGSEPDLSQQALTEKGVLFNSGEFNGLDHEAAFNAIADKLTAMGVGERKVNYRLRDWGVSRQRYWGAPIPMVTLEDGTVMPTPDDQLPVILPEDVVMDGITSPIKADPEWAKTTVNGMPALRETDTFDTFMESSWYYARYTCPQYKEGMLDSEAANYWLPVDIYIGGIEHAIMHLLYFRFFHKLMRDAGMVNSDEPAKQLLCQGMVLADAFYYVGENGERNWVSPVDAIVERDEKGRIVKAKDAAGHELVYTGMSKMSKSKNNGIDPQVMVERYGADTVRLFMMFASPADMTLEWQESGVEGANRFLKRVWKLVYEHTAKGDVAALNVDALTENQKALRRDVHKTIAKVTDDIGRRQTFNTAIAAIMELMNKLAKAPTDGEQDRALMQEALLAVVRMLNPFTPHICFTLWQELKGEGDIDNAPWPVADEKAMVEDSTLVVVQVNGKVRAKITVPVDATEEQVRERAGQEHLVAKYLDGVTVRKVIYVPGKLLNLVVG
- assay.notes: Leucyl-tRNA synthetase enzyme inhibition (AMP-Glo; single point % inhibition at 100 μM and IC50)
- Format: biochemical
- stated.conditions: E. coli LeuRS; read-out: Enzyme Inhibition - IC50, E. coli LeuRS
Counter-ions that a name gives are not always drawn.
Report only the number, with the unit µM understood.

The following compounds have reported results that may help.
C=Cc1ccsc1S(N)(=O)=NC(=O)[C@@H](N)CC(C)C (stereo partly drawn) [ANASIA-106, hydrochloride] = 0.897
CCc1ccsc1[S@](N)(=O)=NC(=O)[C@@H](N)CC(C)C [ANASIA-119-2] = 4.65
CC(C)C[C@H](N)C(=O)N=[S@@](N)(=O)c1cccc(OC(F)F)c1 [ANASIA-088-2] = 1.56
CC(C)C[C@H](N)C(=O)N=[S@@](N)(=O)c1csc2ccccc12 [ANASIA-083-2] = 2.3

Entry CC(C)C[C@H](N)C(=O)N=S(N)(=O)c1csc(F)c1 (stereo partly drawn) [ANASIA-060] : IC50 on Leucyl-tRNA synthetase (LeuRS) (Escherichia coli (strain K12), UniProt P07813) = 0.227

Recorded IC50 for CC(C)C[C@H](N)C(=O)N=[S@@](N)(=O)c1csc(Cl)c1 [ANASIA-099-2] on Leucyl-tRNA synthetase (LeuRS) (Escherichia coli (strain K12), UniProt P07813) was 0.511

IC50 on Leucyl-tRNA synthetase (LeuRS) (Escherichia coli (strain K12), UniProt P07813) for CC(C)C[C@H](N)C(=O)N=[S@](N)(=O)c1csc2ccccc12 [ANASIA-083-1] is 0.157

Record for CC(C)C[C@H](N)C(=O)N=S(N)(=O)c1sc(Cl)nc1Cl (stereo partly drawn) [ANASIA-076] under target or system Leucyl-tRNA synthetase (LeuRS) (Escherichia coli (strain K12), UniProt P07813): IC50 reported as 2.26

Measured on Leucyl-tRNA synthetase (LeuRS) (Escherichia coli (strain K12), UniProt P07813), CC(C)C[C@H](N)C(=O)N=[S@@](N)(=O)c1cc(F)cs1 [ANASIA-062-2] has a documented IC50 of 0.715
